// reported %Inh for each item listed
- Test system: DRAK2
- Construct: gene STK17B
- stated-conditions: concentration: 1 μM, replicates: in singlicate; n = 1;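 further: KINOMEscan kinase panel screen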
Field format: number, assumed %, no unit text.

O=C(Nc1cccc(-c2nn3ccccc3c2-c2ccnc(Nc3cccc(F)c3)n2)c1)c1c(F)ccc(F)c1Cl	0
Cc1occc1-c1ncc(OC[C@@H](N)Cc2c[nH]c3ccccc23)cc1-c1ccc2[nH]nc(C)c2c1.O=C(O)C(F)(F)F	0
CN1CCN(Cc2cccc(-c3ccc4c(Nc5ccc(Oc6ccccc6)cc5)ccnc4c3)c2)CC1	0
CC(=O)Nc1nc2cnc(Nc3cc(NC(=O)c4cccc(C5(C#N)CC5)c4Cl)ccc3C)nc2s1	10
Cc1cccc(Nc2nc(N[C@H]3CCNC3)ncc2C(N)=O)c1.Cl	22

Exam item: Specify reported %Inh for the molecule shown: C[C@@H](Oc1cc(-n2cnc3cc(-c4ccnc(NCCS(C)(=O)=O)c4)ccc32)sc1C(N)=O)c1ccccc1Cl
Marked response: 4

Exam item: Specify reported %Inh for the molecule shown: Cc1ccc(C(=O)N2CC[C@@H](O)C2)cc1-n1c(C)cc(OCc2ccc(F)cc2F)c(Br)c1=O
Marked response: 0

---

- System: RPS6KA5(Kin.Dom.2-C-terminal)
- stated-conditions: concentration: 1 μM, replicates: in singlicate; n = 1
observable: %Inh
Note to self: number, then unit, no commentary.

Cl.Cl.NCC(NCc1ccc(-c2ccnc3[nH]ccc23)s1)c1ccccc1 (centres unmarked)	53%
CC(=O)N1CCN(c2ccc(Nc3nccc(-c4sc(C(C)C)nc4-c4cccc(NS(=O)(=O)c5cccc(Cl)c5)c4)n3)cn2)CC1	0%
CCS(=O)(=O)c1ccc(OC)c(Nc2nccc(-c3c(-c4cccc(NC(=O)c5c(F)cccc5F)c4)nn4ncccc34)n2)c1	0%

Exam item: Specify reported %Inh for the compound shown: COc1cc(Nc2nccc(N3CCC(NC(=O)Nc4cccc(C(C)=O)c4)C3)n2)cc(OC)c1OC (centres unmarked)
Marked response: 6%

Exam item: Specify reported %Inh for the compound shown: Nc1ncc(-c2cccnc2)c2scc(-c3ccc4c(c3)CCN4C(=O)Cc3ccccc3)c12
Marked response: 0%

Exam item: Specify reported %Inh for the compound shown: Cn1cc(-c2ccc3c(c2)CCN3C(=O)Cc2cccc(F)c2)c2c(N)ncnc21
Marked response: 0%

Exam item: Specify reported %Inh for the compound shown: COc1cccc(-c2ccc3c(NC(=O)C4CC4)n[nH]c3n2)c1
Marked response: 12%

Exam item: Specify reported %Inh for the compound shown: COCCOCCOc1cc2ncc3c4ccc(C#N)cc4[nH]c3c2cc1OC
Marked response: 44%

Exam item: Specify reported %Inh for the compound shown: COc1cc(Nc2nccc(-c3c(-c4cccc(NC(=O)c5c(F)cccc5F)c4)nn4ncccc34)n2)cc(OC)c1OC
Marked response: 3%

Exam item: Specify reported %Inh for the compound shown: O=C(Nc1cccc(Oc2ccc3nc(NC(=O)C4CC4)cn3n2)c1)c1ccccc1C(F)(F)F
Marked response: 17%

Exam item: Specify reported %Inh for the compound shown: COC(=O)Nc1nc2ccc(Oc3ccc(NC(=O)Nc4cc(C(F)(F)F)ccc4F)cc3)cc2n1C.Cl
Marked response: 0%

Exam item: Specify reported %Inh for the compound shown: COc1cc(Nc2nccc(N3CCC(NC(=O)c4cc5ccccc5s4)C3)n2)cc(OC)c1OC (centres unmarked)
Marked response: 4%

Exam item: Specify reported %Inh for the compound shown: Nc1ncc(-c2ccc3nccc(-c4ccncc4)c3c2)cc1S(=O)(=O)N1CCOCC1
Marked response: 0%

Exam item: Specify reported %Inh for the compound shown: C[C@@H]1CC[C@@H](C(=O)Nc2ccccc2)CN1c1cc(-c2ccc3c(N)n[nH]c3c2)nc(N)n1
Marked response: 2%

Exam item: Specify reported %Inh for the compound shown: CN(c1ccc(NC(=O)Nc2cc(C(F)(F)F)ccc2F)cc1)c1ccnc(Nc2ccc(S(N)(=O)=O)cc2)n1
Marked response: 4%

Exam item: Specify reported %Inh for the compound shown: c1ccc(Oc2ccc(Nc3ccnc4cc(-c5ccc(CNCCN6CCOCC6)o5)ccc34)cc2)nc1
Marked response: 0%

---

- Test system: AAK1
- stated-conditions: concentration: 1 μM, replicates: in singlicate; n = 1
// reported %Inh for each item listed
Field format: number, assumed %, no unit text.

Answered cases to consult:
CCc1ccc(-c2ccc3c(c2)-c2c(cnn2C)S(=O)(=O)N3C)cc1	0
Cl.Cl.NCC(NC(=O)c1cc(-c2ccccc2)c(-c2ccnc3[nH]ccc23)s1)c1ccccc1 (stereo not shown)	47
c1ccc(Oc2ccc(Nc3ccnc4cc(-c5ccc(CNCCN6CCOCC6)o5)ccc34)cc2)nc1	6

Please look at the following compound next.
Exam item: Specify reported %Inh for the compound shown: O=C(NC1CCN(c2ccnc(Nc3ccc(F)cc3)n2)C1)c1cc2ccccc2s1 (stereo not shown)
Marked response: 7

---

- Tested on: DAPK3
- stated-conditions: concentration: 1 μM, replicates: in singlicate; n = 1
observable: %Inh (%)
Field format: number, assumed %, no unit text.

Answered cases to consult:
Cl.NC(=O)c1cccc(Nc2nccc(Nc3ccc(Oc4c(Cl)cccc4Cl)c(Cl)c3)n2)c1	44
Cc1cccc(Nc2nc(N[C@H]3CCNC3)ncc2C(N)=O)c1.Cl	22
Cl.c1ccc(-c2ccc3c(Nc4ccc5[nH]ncc5c4)ccnc3c2)nc1	23

Exam item: Specify reported %Inh for the compound shown: O=C(NC1CCN(c2ccnc(Nc3ccc(F)cc3)n2)C1)c1cc2ccccc2s1 (centres unmarked)
Marked response: 5

Exam item: Specify reported %Inh for the compound shown: Cn1cc(-c2ccc3c(c2)CCN3C(=O)Cc2cccc(Cl)c2)c2c(N)ncnc21
Marked response: 0

Exam item: Specify reported %Inh for the compound shown: Fc1ccc(-c2ncn(C3CCNCC3)c2-c2ccnc(Oc3ccc(-c4ccccc4)cc3)n2)cc1
Marked response: 22

---

// reported %Inh for each item listed
- System: FLT1
- stated-conditions: concentration: 1 μM, replicates: in singlicate; n = 1
Field format: number, assumed %, no unit text.

Answered cases to consult:
Cc1ccc(C(=O)N2CC[C@@H](O)C2)cc1-n1c(C)cc(OCc2ccc(F)cc2F)c(Br)c1=O	46
Cn1cc(-c2ccc3c(c2)CCN3C(=O)Cc2cccc(F)c2)c2c(N)ncnc21	63
CNC(=O)c1ccccc1Nc1nc(Nc2ccc(N3CCOCC3)cc2)ncc1Cl.Cl	89
Cc1cccc(NC(=O)Nc2ccc(Oc3ncnc4ccn(C)c34)cc2)c1	99.3
CC(=O)N1CCN(c2ccc(Nc3nccc(-c4sc(C(C)C)nc4-c4cccc(NS(=O)(=O)c5cccc(Cl)c5)c4)n3)cn2)CC1	81
Cn1cc(-c2[nH]c3cc(NC(=O)[C@H](N)C4CCCCC4)cc4c3c2C=NNC4=O)cn1	81

Exam item: Specify reported %Inh for the compound shown: C[C@@H]1CC[C@@H](C(=O)Nc2ccccc2)CN1c1cc(-c2ccc3c(N)n[nH]c3c2)nc(N)n1
Marked response: 0

Exam item: Specify reported %Inh for the compound shown: CCS(=O)(=O)c1ccc(OC)c(Nc2nccc(-c3c(-c4cccc(NC(=O)c5c(F)cccc5F)c4)nn4ncccc34)n2)c1
Marked response: 90

---

- Tested on: INSRR
- stated-conditions: concentration: 1 μM, replicates: in singlicate; n = 1
observable: %Inh (%)
Field format: number, assumed %, no unit text.

Cc1ccc(F)c(C(=O)Nc2cccc(-c3nn4ccccc4c3-c3ccnc(Nc4cccc(F)c4)n3)c2)c1F [GSK361061]	26

Exam item: Specify reported %Inh for the compound shown: Nc1ncc(-c2ccc3nccc(-c4ccncc4)c3c2)cc1S(=O)(=O)N1CCOCC1 [GSK1627798]
Marked response: 15

Exam item: Specify reported %Inh for the compound shown: O=c1[nH]cc(-c2ccc(N3CCOCC3)cc2)c2sc(-c3cn[nH]c3)cc12 [GSK2276055]
Marked response: 0

Exam item: Specify reported %Inh for the compound shown: Cn1cc(-c2[nH]c3cc(NC(=O)[C@H](N)C4CCCCC4)cc4c3c2C=NNC4=O)cn1
Marked response: 4

---

- Tested on: BMPR1A
- stated-conditions: concentration: 1 μM, replicates: in singlicate; n = 1
// reported %Inh for each item listed
Field format: number, assumed %, no unit text.

Answered cases to consult:
CN1CCN(CCCNc2nccc(-c3c(-c4ccc(F)cc4)nn4cc(C(F)(F)F)ccc34)n2)CC1 [GW621581]	0
Cn1cc(-c2ccc3c(c2)CCN3C(=O)Cc2cccc(Cl)c2)c2c(N)ncnc21 [GSK2606590]	0
CNC(=O)c1ccccc1Nc1nc(Nc2ccc(N3CCOCC3)cc2)ncc1Cl.Cl [GSK1576028]	28
FC(F)(F)c1ccc(/C=C/c2cncnc2Nc2ccc3[nH]c(Cc4ccccc4)nc3c2)cc1 [GW709199]	4
O=C(Nc1cccc(-c2nn3ncccc3c2-c2ccnc(Nc3ccccc3)n2)c1)c1c(F)cccc1F [GSK198271]	0
Oc1cc(Nc2ccnc3cc(I)ccc23)ccc1F [GW552771]	56

Exam item: Specify reported %Inh for the compound shown: COc1cc(Nc2nccc(N3CCC(NC(=O)c4cc5ccccc5s4)C3)n2)cc(OC)c1OC (stereo not shown) [GSK1379760]
Marked response: 0
